Ki, Mu-type opioid receptor (Rattus norvegicus, UniProt P33535): measured values
Answer in µM, number only, no unit symbol.

Field: example entries. Status: answers known.
Oc1cccc2c1[C@]13CCN(CC4CC4)[C@H](C2)[C@@H]1Cc1cc2ccccc2nc1C3 = 0.148
CC(C)CN1CC[C@]23Cc4nc5ccccc5cc4C[C@H]2[C@H]1Cc1cccc(O)c13 = 0.323
Oc1ccc2c3c1O[C@H]1c4nc5ccccc5cc4C[C@H]4[C@@H](C2)N(CC2CC2)CC[C@]314 = 0.013

Please turn your attention to the following entry.
Prompt line: API: value(readout=Ki, system=Mu-type opioid receptor (Rattus norvegicus, UniProt P33535)) for record CN1CC[C@]23Cc4nc5ccccc5cc4C[C@H]2[C@H]1Cc1cccc(O)c13
Response line: 0.0518

====

# Species on record: Rattus norvegicus
# protocol: Selectivity ratio of Ki for mu opioid receptor in rat cerebrum membranes to Ki for delta opioid receptor in rat cerebrum membranes
# Type: cell membranes
# testParameters: Membrane
readoutKind: Ratio Ki
Please respond with just the number, no unit label.

CN1CC[C@]23Cc4nc5ccccc5cc4C[C@H]2[C@H]1Cc1ccc(O)cc13 = 82.4

Prompt line: Entry CC(C)CN1CC[C@]23Cc4nc5ccccc5cc4C[C@H]2[C@H]1Cc1cccc(O)c13 : reported Ratio Ki = ?
Response line: 265

Prompt line: Entry Oc1cccc2c1[C@]13CCN(CC4CC4)[C@H](C2)[C@@H]1Cc1cc2ccccc2nc1C3 : reported Ratio Ki = ?
Response line: 548

Prompt line: Entry CN1CC[C@]23Cc4nc5ccccc5cc4C[C@H]2[C@H]1Cc1cccc(O)c13 : reported Ratio Ki = ?
Response line: 51.8

Prompt line: Entry Oc1ccc2c3c1O[C@H]1c4nc5ccccc5cc4C[C@H]4[C@@H](C2)N(CC2CC2)CC[C@]314 : reported Ratio Ki = ?
Response line: 30.2

Prompt line: Entry Oc1ccc2c(c1)[C@]13CCN(CC4CC4)[C@H](C2)[C@@H]1Cc1cc2ccccc2nc1C3 : reported Ratio Ki = ?
Response line: 4.1

Prompt line: Entry CC(C)CN1CC[C@]23Cc4nc5ccccc5cc4C[C@H]2[C@H]1Cc1ccc(O)cc13 : reported Ratio Ki = ?
Response line: 124

Prompt line: Entry CN1CC[C@]2(c3cccc(O)c3)Cc3nc4ccccc4cc3C[C@H]2C1 : reported Ratio Ki = ?
Response line: 197

====

# key: entry, value: pEC50
# testSystem: Delta-type opioid receptor (Homo sapiens, UniProt P41143)
# Sequence (P41143 whole entry): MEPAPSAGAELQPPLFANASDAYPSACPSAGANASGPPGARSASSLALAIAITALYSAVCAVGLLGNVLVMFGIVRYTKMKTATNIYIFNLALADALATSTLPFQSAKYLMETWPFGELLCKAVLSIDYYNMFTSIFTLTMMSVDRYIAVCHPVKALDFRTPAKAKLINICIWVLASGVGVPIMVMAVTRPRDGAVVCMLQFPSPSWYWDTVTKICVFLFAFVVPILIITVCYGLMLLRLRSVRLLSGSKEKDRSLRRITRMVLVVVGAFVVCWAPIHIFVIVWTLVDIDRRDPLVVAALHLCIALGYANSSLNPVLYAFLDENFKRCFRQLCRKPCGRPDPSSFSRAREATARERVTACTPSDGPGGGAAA
# protocol: Agonist activity at human recombinant delta opioid receptor expressed in human HEK293 cells by [35S]GTPgammaS binding assay
pEC50 here: minus log base 10 of the concentration, concentration in moles per litre.

CC(C)CN1CC[C@]23Cc4nc5ccccc5cc4C[C@H]2[C@H]1Cc1cccc(O)c13 = 8.63
Oc1cccc2c1[C@]13CCN(CC4CC4)[C@H](C2)[C@@H]1Cc1cc2ccccc2nc1C3 = 9.72

Please turn your attention to the following entry.
Prompt line: Entry CN1CC[C@]23Cc4nc5ccccc5cc4C[C@H]2[C@H]1Cc1cccc(O)c13 : reported pEC50 = ?
Response line: 8.75

====

# testSystem: UniProt P41144
# Sequence (P41144 whole entry): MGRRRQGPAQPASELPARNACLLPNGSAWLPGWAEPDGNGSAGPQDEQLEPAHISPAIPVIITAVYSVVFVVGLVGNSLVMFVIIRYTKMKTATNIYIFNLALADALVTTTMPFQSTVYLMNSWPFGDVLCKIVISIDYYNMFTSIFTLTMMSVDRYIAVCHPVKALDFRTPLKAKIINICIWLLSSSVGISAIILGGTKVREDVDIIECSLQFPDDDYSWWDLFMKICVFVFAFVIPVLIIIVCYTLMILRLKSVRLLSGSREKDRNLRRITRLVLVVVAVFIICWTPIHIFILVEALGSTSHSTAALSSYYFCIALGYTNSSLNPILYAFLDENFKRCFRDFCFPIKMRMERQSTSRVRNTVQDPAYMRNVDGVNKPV
# protocol: Displacement of [3H]U-69,593 from kappa opioid receptor in guinea pig cerebrum membranes
# Type: cell membranes, Membrane
readoutKind: Ki (nM)
Answer in nM, number only, no unit symbol.

Prompt line: Entry CN1CC[C@]23Cc4nc5ccccc5cc4C[C@H]2[C@H]1Cc1cccc(O)c13 : reported Ki = ?
Response line: 263

Prompt line: Entry Oc1cccc2c1[C@]13CCN(CC4CC4)[C@H](C2)[C@@H]1Cc1cc2ccccc2nc1C3 : reported Ki = ?
Response line: 17.5

Prompt line: Entry Oc1ccc2c3c1O[C@H]1c4nc5ccccc5cc4C[C@H]4[C@@H](C2)N(CC2CC2)CC[C@]314 : reported Ki = ?
Response line: 14.8

Prompt line: Entry CC(C)CN1CC[C@]23Cc4nc5ccccc5cc4C[C@H]2[C@H]1Cc1cccc(O)c13 : reported Ki = ?
Response line: 516
